Biological target: HDM2 protein (Homo sapiens, UniProt Q00987)
Sequence (Q00987 whole entry): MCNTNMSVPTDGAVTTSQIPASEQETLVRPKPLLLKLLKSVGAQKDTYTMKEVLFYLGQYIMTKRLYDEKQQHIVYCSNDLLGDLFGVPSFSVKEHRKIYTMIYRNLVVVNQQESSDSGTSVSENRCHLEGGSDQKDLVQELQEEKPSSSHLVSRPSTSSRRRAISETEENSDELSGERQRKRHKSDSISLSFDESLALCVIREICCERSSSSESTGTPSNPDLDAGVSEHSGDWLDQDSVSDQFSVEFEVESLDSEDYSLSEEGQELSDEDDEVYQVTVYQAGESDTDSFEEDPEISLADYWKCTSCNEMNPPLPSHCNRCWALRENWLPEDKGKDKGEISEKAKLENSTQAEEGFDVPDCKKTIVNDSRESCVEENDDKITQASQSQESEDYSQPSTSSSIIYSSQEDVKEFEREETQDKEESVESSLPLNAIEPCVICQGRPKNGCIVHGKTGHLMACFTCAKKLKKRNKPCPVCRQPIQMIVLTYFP
Experiment: fluorescence polarization screening assay (FP IC50)
Assay type: binding
Conditions: class symbols
Protocol: The compounds were evaluated to determine activity at the HDM2 protein by known methods such as the fluorescence polarization screening assay that measures the inhibitory concentration that achieves 50% of maximal activity (FP IC50) and the dissociation constant for inhibitor binding (FP Ki). [Zhang et al., J. Analytical Biochemistry 331: 138-146 (2004)].
pIC50: −log10 of the molar value.
Readings of pIC50 for the listed compounds

In the examples that follow, each entry is paired with its recorded pIC50.
stdin: Missing value: pIC50, HDM2 protein (Homo sapiens, UniProt Q00987), entry CCC[C@H]1N(C(=O)c2ncccc2C(F)(F)F)CCC[C@@]1(Oc1csc(C(F)(F)F)c1)C(=O)N1Cc2sc(Br)cc2C[C@H]1C(=O)NS(C)(=O)=O . Fill in?
stdout: 7.00 to 9.00

stdin: Item: CCC[C@H]1N(C(=O)c2ncccc2C(F)(F)F)CCC[C@@]1(Oc1csc(C(F)(F)F)c1)C(=O)N1CCc2cc(-c3ccsc3)ccc2C1 Test system: HDM2 protein (Homo sapiens, UniProt Q00987) Read-out: pIC50 Value: ?
stdout: 4.70 to 7.00

More entries:
stdin: Test system HDM2 protein (Homo sapiens, UniProt Q00987); read-out pIC50; what value for O=C(c1ncccc1C(F)(F)F)N1CCC[C@@](Oc2csc(C(F)(F)F)c2)(C(=O)N2CCc3cc(F)ccc3C2)[C@H]1CCN1CCOCC1 ?
stdout: 7.00 to 9.00

stdin: Request - read-out pIC50 | tested on HDM2 protein (Homo sapiens, UniProt Q00987) | compound CCC[C@H]1N(C(=O)c2ncccc2C(F)(F)F)CCC[C@@]1(Oc1csc(C(F)(F)F)c1)C(=O)N1CCc2cc(Cl)ccc2C1C#N (stereo partly drawn) [Compound A78]
stdout: 4.70 to 7.00

stdin: Look up pIC50 with HDM2 protein (Homo sapiens, UniProt Q00987) for this compound: CCC[C@H]1N(C(=O)c2ncccc2C(F)(F)F)CCC[C@@]1(Oc1csc(C(F)(F)F)c1)C(=O)N1CCc2cc(Cl)ccc2C1C1CCC(C(=O)O)C1 (stereo partly drawn)
stdout: 7.00 to 9.00

stdin: I'm curious: which pIC50 was measured for CCC[C@H]1N(C(=O)c2ncccc2C(F)(F)F)CCC[C@@]1(Oc1csc(C(F)(F)F)c1)C(=O)N1Cc2cc(F)c(F)cc2C[C@H]1CCC(=O)O tested on HDM2 protein (Homo sapiens, UniProt Q00987)?
stdout: 7.00 to 9.00

====

molecular target: HDM2 protein (Homo sapiens, UniProt Q00987); test: fluorescence polarization screening assay (FP IC50); format: binding; settings: class symbols
pIC50: −log10 of the molar value.
Readout label: pIC50

Sample answers from the record:
stdin: Dear colleague, I am looking for the recorded pIC50 of the following molecule: O=C(c1cnccc1C(F)(F)F)N1CCC[C@@](Oc2csc(C(F)(F)F)c2)(C(=O)N2CCc3ccc(Cl)cc3C2)[C@H]1CCN1CCOCC1 [Compound A3]
stdout: 4.70 to 7.00

stdin: Please give the measured pIC50 for this molecule: CCC[C@H]1N(C(=O)c2ncccc2C(F)(F)F)CCC[C@@]1(Oc1csc(C(F)(F)F)c1)C(=O)N1Cc2ccc(Cl)cc2C[C@@H]1CCCN1CCC[C@H]1COC [Compound A156]
stdout: 7.00 to 9.00

stdin: Fill blank: measured pIC50 of the molecule CCC[C@H]1N(C(=O)c2ncccc2C(F)(F)F)CCC[C@@]1(Oc1csc(C(F)(F)F)c1)C(=O)N1CCc2cc(Cl)ccc2[C@H]1CCC(=O)O [Compound A45] is ____.
stdout: 7.00 to 9.00

stdin: Which pIC50 value is on record for CCC[C@H]1N(C(=O)c2ncccc2C(F)(F)F)CCC[C@@]1(Oc1csc(C(F)(F)F)c1)C(=O)N1Cc2ccc(Cl)cc2C[C@@H]1C[C@H](COC)C(=O)O [Compound A161] ?
stdout: 7.00 to 9.00

Please find the next molecule below.
stdin: GET /values?readout=pIC50&item= CCC[C@H]1N(C(=O)c2ncccc2C(F)(F)F)CCC[C@@]1(Oc1csc(C(F)(F)F)c1)C(=O)N1Cc2ccc(F)cc2C[C@H]1CN(C)C(=O)[C@@H](C)O [Compound A158]
stdout: 4.70 to 7.00

====

molecular target: HDM2 protein (Homo sapiens, UniProt Q00987); assay: fluorescence polarization screening assay (FP IC50); type: binding; details: class symbols
Readout label: IC50

Observe how each entry below is paired with its result.
stdin: Give its IC50 value. Item: CC(C)(C(=O)O)C1CCN(CC[C@H]2N(C(=O)c3ncccc3C(F)(F)F)CCC[C@@]2(Oc2csc(C(F)(F)F)c2)C(=O)N2CCc3cc(Cl)ccc3C2)CC1
stdout: 1 to 100 nM

stdin: Recorded IC50 of CCC[C@H]1N(C(=O)c2ncccc2C(F)(F)F)CCC[C@@]1(Oc1csc(C(F)(F)F)c1)C(=O)N1Cc2ccc(F)cc2C[C@@H]1C(=O)N1CCC(O)CC1 , please.
stdout: 1 to 100 nM

stdin: IC50 for CCC[C@H]1N(C(=O)c2cnccc2C(F)(F)F)CCC[C@@]1(Oc1csc(C(F)(F)F)c1)C(=O)N1Cc2ccccc2C[C@H]1CO ?
stdout: 101 to 20000 nM

stdin: Which IC50 is listed for CCC[C@H]1N(C(=O)c2ncccc2C(F)(F)F)CCC[C@@]1(Oc1csc(C(F)(F)F)c1)C(=O)N1CCc2cc(-c3ccccc3)ccc2C1 ?
stdout: 101 to 20000 nM

stdin: GET /values?readout=IC50&item= CCC[C@H]1N(C(=O)c2ncccc2C(F)(F)F)CCC[C@@]1(Oc1csc(C(F)(F)F)c1)C(=O)N1Cc2ccc(Cl)cc2C[C@@H]1CCCF
stdout: 101 to 20000 nM

stdin: For CCC[C@H]1N(C(=O)c2ncccc2C(F)(F)F)CCC[C@@]1(Oc1csc(C(F)(F)F)c1)C(=O)N1Cc2ccc(Cl)cc2C[C@@H]1CCC(=O)NC , what is its reported IC50?
stdout: 1 to 100 nM

stdin: Entry CCC[C@H]1N(C(=O)c2ncccc2C(F)(F)F)CCC[C@@]1(Oc1csc(C(F)(F)F)c1)C(=O)N1CCc2sc(Cl)cc2C1C(=O)O (some centres unmarked) [Compound A13] : reported IC50 = ?
stdout: 1 to 100 nM

stdin: Data request, read-out IC50, for CCC[C@H]1N(C(=O)c2ncccc2C(F)(F)F)CCC[C@@]1(Oc1csc(C(F)(F)F)c1)C(=O)N1Cc2ccc(F)cc2C[C@H]1CCC(C)O (some centres unmarked)
stdout: 1 to 100 nM

stdin: I am curious: what IC50 value has been reported for CCC[C@H]1N(C(=O)c2ncccc2C(F)(F)F)CCC[C@@]1(Oc1csc(C(F)(F)F)c1)C(=O)N1Cc2ccc(Cl)cc2C[C@@H]1COCC(=O)O ?
stdout: 1 to 100 nM

stdin: // query IC50 value for entry CCC[C@H]1N(C(=O)c2ncccc2C(F)(F)F)CCC[C@@]1(Oc1csc(C(F)(F)F)c1)C(=O)N1CCc2cc(F)ccc2C1CCCCC(=O)O (some centres unmarked) [Compound A40]
stdout: 1 to 100 nM

Next molecule, IC50 to be filled in.
stdin: Given the molecule CCC[C@H]1N(C(=O)c2ncccc2C(F)(F)F)CCC[C@@]1(Oc1csc(C(F)(F)F)c1)C(=O)N1Cc2ccc(Cl)cc2C[C@@H]1CCC(=O)N(C)C , what is its reported IC50?
stdout: 1 to 100 nM

====

Attribute: IC50
target: HDM2 protein (Homo sapiens, UniProt Q00987); assay: fluorescence polarization screening assay (FP IC50); type: binding; conditions: class symbols

Completed entries (count: 2):
stdin: Give its IC50 value. Item: CCC[C@H]1N(C(=O)c2ncccc2C(F)(F)F)CCC[C@@]1(Oc1csc(C(F)(F)F)c1)C(=O)N1Cc2ccc(F)cc2C[C@H]1C(=O)O
stdout: 1 to 100 nM

stdin: Quick check: IC50 of CCC[C@H]1N(C(=O)c2ncccc2C(F)(F)F)CCC[C@@]1(Oc1csc(C(F)(F)F)c1)C(=O)N1CCc2cc(Cl)ccc2C1C(=O)O (stereo partly drawn) [Compound A102] ?
stdout: 1 to 100 nM

Continuing:
stdin: Name the reported IC50 value associated with the compound CCC[C@H]1N(C(=O)c2ncccc2C(F)(F)F)CCC[C@@]1(Oc1csc(C(F)(F)F)c1)C(=O)N1CCc2cc(Cl)ccc2C1CC(=O)O (stereo partly drawn) [Compound A53]
stdout: 1 to 100 nM

====

biological target: HDM2 protein (Homo sapiens, UniProt Q00987); test: fluorescence polarization screening assay (FP IC50); type: binding; conditions: class symbols
Readout label: IC50

Worked examples, 6 compounds total:
stdin: Can you share its IC50? I mean this compound: CCC[C@H]1N(C(=O)c2ncccc2C(F)(F)F)CCC[C@@]1(Oc1csc(C(F)(F)F)c1)C(=O)N1CCc2cc(N)ccc2C1
stdout: 0.101 to 20 µM

stdin: What does the record list as IC50 for CCC[C@H]1N(C(=O)c2ncccc2C(F)(F)F)CCC[C@@]1(Oc1csc(C(F)(F)F)c1)C(=O)N1CCc2cc(Cl)ccc2C1CN1CCCC1 (stereo partly drawn) ?
stdout: 0.101 to 20 µM

stdin: So what does the record say about IC50 for CCC[C@H]1N(C(=O)c2cnccc2C(F)(F)F)CCC[C@@]1(Oc1csc(C(F)(F)F)c1)C(=O)N1CCc2cccc(O)c2C1 ?
stdout: 0.101 to 20 µM

stdin: What does the record list as IC50 for CCC[C@H]1N(C(=O)c2ncccc2C(F)(F)F)CCC[C@@]1(Oc1csc(C(F)(F)F)c1)C(=O)N1CCc2cc(F)ccc2C1CCCO (stereo partly drawn) [Compound A51] ?
stdout: 0.001 to 0.1 µM

stdin: GET /values?readout=IC50&item= CCC[C@H]1N(C(=O)c2ncccc2C(F)(F)F)CCC[C@@]1(Oc1csc(C(F)(F)F)c1)C(=O)N1Cc2ccc(F)cc2C[C@@H]1CC(=O)O
stdout: 0.001 to 0.1 µM

stdin: Using the record for CCC[C@H]1N(C(=O)c2ncccc2C(F)(F)F)CCC[C@@]1(Oc1csc(C(F)(F)F)c1)C(=O)N1CCc2cc(Cl)ccc2C1CC(C(=O)O)C(C)C (stereo partly drawn) [Compound A179] , report its IC50.
stdout: 0.001 to 0.1 µM

Next:
stdin: Quick one: IC50 for CCC[C@H]1N(C(=O)c2ncccc2C(F)(F)F)CCC[C@@]1(Oc1csc(C(F)(F)F)c1)C(=O)N1CCc2sc(Cl)cc2C1CCC(=O)O (stereo partly drawn) ?
stdout: 0.001 to 0.1 µM

stdin: # input compound: CCC[C@H]1N(C(=O)c2ncccc2C(F)(F)F)CCC[C@@]1(Oc1csc(C(F)(F)F)c1)C(=O)N1Cc2ccc(F)cc2C[C@@H]1CCC(=O)O ; wanted: its IC50
stdout: 0.001 to 0.1 µM

stdin: Recorded IC50 of CCC[C@H]1N(C(=O)c2ncccc2C(F)(F)F)CCC[C@@]1(Oc1csc(C(F)(F)F)c1)C(=O)N1CCc2cc(Cl)ccc2C1CC(C)(C)C#N (stereo partly drawn) , please.
stdout: 0.101 to 20 µM

stdin: Given the compound CCC[C@H]1N(C(=O)c2ncccc2C(F)(F)F)CCC[C@@]1(Oc1csc(C(F)(F)F)c1)C(=O)N1CCc2cc(F)ccc2C1CCC(=O)O (stereo partly drawn) [Compound A39] , what is its reported IC50?
stdout: 0.001 to 0.1 µM

stdin: If you can, please state the reported IC50 value of CCC[C@H]1N(C(=O)c2ncccc2C(F)(F)F)CCC[C@@]1(Oc1csc(C(F)(F)F)c1)C(=O)N1CCc2sc(Cl)cc2C1CCC(=O)NS(C)(=O)=O (stereo partly drawn) [Compound A37] .
stdout: 0.001 to 0.1 µM

stdin: // lookup IC50 for CCC[C@H]1N(C(=O)c2ncccc2C(F)(F)F)CCC[C@@]1(Oc1csc(C(F)(F)F)c1)C(=O)N1CCc2cc(Cl)ccc2C1CCC(=O)NCc1nn[nH]n1 (stereo partly drawn)
stdout: 0.001 to 0.1 µM
